Every entry's value here was drawn from paper PMC6324813.

Documented activation at 1 µM across a set of compounds
# target: ERβ (Homo sapiens, UniProt Q92731)
# Sequence (Q92731 whole entry): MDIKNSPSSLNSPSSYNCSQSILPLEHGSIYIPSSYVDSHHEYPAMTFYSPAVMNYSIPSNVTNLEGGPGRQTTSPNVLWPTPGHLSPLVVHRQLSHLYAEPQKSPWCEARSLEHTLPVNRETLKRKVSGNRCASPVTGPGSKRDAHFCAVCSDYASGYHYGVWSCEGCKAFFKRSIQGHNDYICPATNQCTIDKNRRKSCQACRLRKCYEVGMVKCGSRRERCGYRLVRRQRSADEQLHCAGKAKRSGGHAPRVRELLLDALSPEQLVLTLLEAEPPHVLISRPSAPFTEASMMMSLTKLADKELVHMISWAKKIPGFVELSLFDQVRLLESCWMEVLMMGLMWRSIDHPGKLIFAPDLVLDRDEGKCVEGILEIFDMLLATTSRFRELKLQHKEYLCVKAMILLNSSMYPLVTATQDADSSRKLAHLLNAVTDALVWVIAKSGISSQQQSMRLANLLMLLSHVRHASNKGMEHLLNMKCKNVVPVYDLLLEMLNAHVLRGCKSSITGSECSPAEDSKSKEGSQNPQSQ
# protocol-description: ERE-dependent luciferase gene transcription in HEK:ERβ cells
# Assay type: cell-based
# Design: expressed in transfected cells; host or cells: HEK-293 (HEK:ERβ clone, with pERE-tk-Luciferase)
# measurement-setup: 18 h; read-out: Induction of luciferase gene transcription through ERβ, HEK:ERβ cells, Agonism at 1μΜ (% of 0.1nM E2)

compound	target	activation at 1 µM (%)
COc1cc(-c2coc3cc(O)cc(OC)c3c2=O)ccc1O [Compound 6, 3΄-methoxyisoprunetin]	ERβ (Homo sapiens, UniProt Q92731)	81
COc1cc(O)cc2occ(-c3ccc(O)cc3)c(=O)c12 [Compound 4, isoprunetin]	ERβ (Homo sapiens, UniProt Q92731)	27
COc1ccc(-c2coc3cc(O)cc(O)c3c2=O)cc1 [Compound 1, Biochanin A]	ERβ (Homo sapiens, UniProt Q92731)	31
O=c1c(-c2ccc(OC3O[C@H](CO)[C@@H](O)[C@H](O)[C@H]3O)cc2)coc2cc(OC3O[C@H](CO)[C@@H](O)[C@H](O)[C@H]3O)cc(O)c12 (some centres unmarked) [Compound 11, 7,4΄-di-O-glucopyranosylgenistein]	ERβ (Homo sapiens, UniProt Q92731)	80
COc1cc(O)cc2occ(-c3ccc(O)c(O)c3)c(=O)c12 [Compound 7, 5-O-methylorobol]	ERβ (Homo sapiens, UniProt Q92731)	13

----------
Documented RBAβ / RBAα across a set of compounds
# target: ERβ (Homo sapiens, UniProt Q92731)
# protocol-description: ER binding competitor assay (fluorescent estrogen ES2), ERβ
# Design: purchased Invitrogen
# measurement-setup: ERβ-binding selectivity

compound	target	RBAβ / RBAα
O=c1c(-c2ccc(O)c(O)c2)coc2c(C3OC(CO)C(O)C(O)C3O)c(O)cc(O)c12 (centres unmarked) [Compound 9, 8-C-glucopyranosyl-orobol]	ERβ (Homo sapiens, UniProt Q92731)	0.45
COc1cc(O)cc2occ(-c3ccc(O)cc3)c(=O)c12 [Compound 4, isoprunetin]	ERβ (Homo sapiens, UniProt Q92731)	5.00
COc1cc(-c2coc3cc(O)cc(OC)c3c2=O)ccc1O [Compound 6, 3΄-methoxyisoprunetin]	ERβ (Homo sapiens, UniProt Q92731)	4.50
O=c1c(-c2ccc(OC3O[C@H](CO)[C@@H](O)[C@H](O)[C@H]3O)cc2)coc2c(C3O[C@H](CO)[C@@H](O)[C@H](O)[C@H]3O)c(O)cc(O)c12 (some centres unmarked) [Compound 14, 8-C,4΄-O-diglucopyranosyl-genistein]	ERβ (Homo sapiens, UniProt Q92731)	2.50
O=c1c(-c2ccc(O)cc2)coc2cc(O[C@@H]3O[C@H](CO)[C@@H](O)[C@H](O)[C@H]3O)cc(O)c12 [Compound 12, 7-O-β-D-glucopyranosyl-genistein]	ERβ (Homo sapiens, UniProt Q92731)	1.75

----------
Documented RBAβ across a set of molecules
# target: ERβ (Homo sapiens)
# protocol-description: ER binding competitor assay (fluorescent estrogen ES2), ERβ
# Parameters: purchased Invitrogen
# measurement-setup: RBA = (IC50 estradiol/IC50 compound) × 100; ES2 1 nM; estradiol set equal to 100
endpoint-label: RBAβ

molecule	measured
COc1cc(O)cc2occ(-c3ccc(O)cc3)c(=O)c12	0.15
O=c1c(-c2ccc(O)c(O)c2)coc2c(C3OC(CO)C(O)C(O)C3O)c(O)cc(O)c12 (stereo not shown)	0.05
COc1cc(-c2coc3c(C4OC(CO)C(O)C(O)C4O)c(O)cc(O)c3c2=O)ccc1O (stereo not shown)	0.12
O=c1c(-c2ccc(O)cc2)coc2cc(O[C@@H]3O[C@H](CO)[C@@H](O)[C@H](O)[C@H]3O)cc(O)c12	0.07
